Each record here notes measured IC50.
# Tested on: MDA-MB-231 (hormone independent breast cancer)
# protocol_text: MTT cytotoxicity assay, MDA-MB-231
# reported_conditions: Homo sapiens, MDA-MB-231, read-out: Cytotoxicity IC50, MDA-MB-231, MDA-MB-231 cell line, MTT assay

Reference set (2 entries):
>>> recorded_measurement("CC1=C(CC/C(C)=C/CC/C(=C\\CC2OC(=O)C=C2CO)CO)C(C)(C)CCC1 (stereo not drawn) [Compound 12, (6E)-neomanoalide]")
"> 50 µg/mL"
>>> recorded_measurement("CC1=C(CC/C(C)=C/CC/C(=C/C[C@@H](O)C2=CC(=O)OC2)CO)C(C)(C)CCC1 [Compound 10, luffariolide B]")
"> 50 µg/mL"

Consider the additional molecule presented here.
Entry CC(=O)OC/C(=C\CC1OC(=O)C=C1CO)CC/C=C(\C)CCC1=C(C)CCCC1(C)C (stereo not drawn) [Compound 7, (6Z)-neomanoalide-24-acetate] , IC50 reported as > 50 µg/mL
